# protocol text: concentration required to reduce the cell number by 50%
# Type: cell-based
# condition set: human, human embryonic lung cells; concentration reducing the cell number by 50%
endpoint label: CC50

// CCCCCCCCCCCCc1cc2cn(C3CCC(CO)O3)c(=O)nc2o1 (stereo not shown) [Example 4] : CC50 value = > 200 µM

// CCCCOCCCCCCCCCc1cc2cn(C3CCC(CO)O3)c(=O)nc2o1 (stereo not shown) [Example 8] : CC50 value = 200 µM

// CCCCCCc1cc2cn(C3CCC(CO)O3)c(=O)nc2o1 (stereo not shown) [Example 1] : CC50 value = 143 µM

API: the following record is the query input.
// CCCCCCCCCCCc1cc2cn(C3CCC(CO)O3)c(=O)nc2o1 (stereo not shown) [Example 7] : CC50 value = > 200 µM

---

# Test system: cytomegalo virus (CMV)
# protocol text: anti-CMV activity in tissue culture, summary in words of the table
# Format: cell-based
# condition set: summary of the table data; comparison with Ganciclovir
endpoint label: anti-CMV activity (in words)

// CCCCOCCCCCCCCCc1cc2cn(C3CCC(CO)O3)c(=O)nc2o1 (stereo not drawn) [Example 8] : anti-CMV activity (in words) value = potent anti-CMV activity

// CCCCCCCCCCCc1cc2cn(C3CCC(CO)O3)c(=O)nc2o1 (stereo not drawn) [Example 7] : anti-CMV activity (in words) value = potent anti-CMV activity

// O=c1nc2oc(CCCCCCCCCOCCCCCl)cc2cn1C1CCC(CO)O1 (stereo not drawn) [Example 9] : anti-CMV activity (in words) value = potent anti-CMV activity

// CCCCCCCCc1cc2cn(C3CCC(CO)O3)c(=O)nc2o1 (stereo not drawn) [Example 2] : anti-CMV activity (in words) value = potent anti-CMV activity

The reported numbers originate from patent US7019135B2.
